All values here come from patent US10098878B2.

Test system: 786-O-Hif-Luc cells
Assay: Luciferase Assay
Type: cell-based
Conditions: 24 h, 786-O-Hif-Luc cells; about 24 hours; read-out: Luciferase EC50
pEC50: −log10 of the molar value.
Consider the following partition of reported pEC50 into named classes: low: < 6; intermediate: ≥ 6 and < 7; high: ≥ 7

N[C@@H]1c2c(ccc(Oc3cc(F)cc(F)c3)c2C(F)F)S(=O)(=O)C1(F)F ... high
CS(=O)(=O)c1ccc(Oc2cncc(Cl)c2)c2c1[C@H](O)C(F)(F)[C@@H]2F ... high
N#Cc1c(Oc2cccc(F)c2)ccc2c1[C@@H](O)CS2(=O)=O ... intermediate
O=S1(=O)c2ccc(OC3CCOCC3)c(C(F)F)c2C(O)C1(F)F (centres unmarked) ... low
N#Cc1c(Oc2cc(F)cc(F)c2)ccc2c1[C@@H](O)CS2(=O)=O ... intermediate

Ask | Kindly state the category for this compound: N#Cc1cc(F)cc(Oc2ccc(S(=O)(=O)C(F)(F)F)c3c2CC(F)(F)[C@H]3NCCO)c1
Reply | low

Ask | In plain terms, what class is O=S1(=O)c2ccc(Oc3cccc4sccc34)c(C(F)F)c2C(O)C1(F)F (centres unmarked) ?
Reply | intermediate

Ask | # classify by pEC50 band: CC1(O)c2c(ccc(Oc3cc(F)cc(F)c3)c2C#N)S(=O)(=O)C1(F)F (centres unmarked)
Reply | high

Ask | Any idea which band Cc1cncc(Oc2ccc(S(C)(=O)=O)c3c2CC(F)(F)[C@H]3O)n1 is in?
Reply | low

Ask | Hello team, could you let me know which band the following compound falls into: CS(=O)(=O)c1ccc(Oc2cc(F)cc(C#N)c2)c2c1[C@H](O)[C@H](F)[C@@H]2F
Reply | high

Ask | Dear colleague, I would appreciate it if you could identify the bin for N#Cc1cncc(Oc2ccc(C(F)(F)F)c3c2CC(F)(F)[C@H]3O)c1 and reply at your convenience.
Reply | high

Ask | Field: class (pEC50) — entry: N#Cc1cc(F)cc(Oc2ccc3c(c2C#N)[C@@H](O)CS3(=O)=O)c1
Reply | intermediate

Ask | Tag the class for N#Cc1cc(F)cc(Oc2ccc(S(=O)(=O)C(F)(F)F)c3c2CC(F)C3N)c1 (centres unmarked) [Compound 32]
Reply | low

Ask | GET /class?item= CS(=O)(=NC#N)c1ccc(Oc2cc(F)cc(C#N)c2)c2c1[C@H](O)C(F)(F)[C@@H]2F (single isomer, unassigned)
Reply | high

Ask | Class for N#Cc1cc(F)cc(Oc2ccc(S(=O)(=O)C(F)(F)F)c3c2C[C@@H](F)[C@H]3O)c1 ?
Reply | high

---

The entries below come with measured IC50 values attached.
Target: HIF-2α HIS TAG-PASB Domain (Homo sapiens, UniProt Q99814)
Construct: 100 nM HIF-2α HIS TAG-PASB Domain
Sequence (Q99814 240-350 limits assumed): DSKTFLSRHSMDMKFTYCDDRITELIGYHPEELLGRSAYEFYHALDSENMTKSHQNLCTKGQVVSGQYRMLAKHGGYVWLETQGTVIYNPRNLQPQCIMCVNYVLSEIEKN
Test: HIF-2α Scintillation Proximity Assay (SPA)
Format: binding
Conditions: 150 nM Compound 211 probe, 100 nM HIF-2α HIS TAG-PASB Domain; read-out: SPA IC50
Write down the numeric answer in nM and omit the unit.

A selection of reference data follows.
N#Cc1cc(F)cc(Oc2ccc(S(N)(=O)=O)c3c2C[C@@H](F)[C@H]3O)c1 [Compound 98] ... 73
CS(=O)(=O)c1ccc(Oc2cncc(C#N)c2)c2c1[C@H](O)C(F)(F)[C@@H]2F [Compound 106] ... 47
COc1cc(F)cc(Oc2ccc3c(c2C#N)[C@@H](O)C(F)(F)S3(=O)=O)c1 [Compound 191] ... 66
N#CN=S(=O)(CF)c1ccc(Oc2cc(F)cc(C#N)c2)c2c1[C@H](O)C(F)(F)C2 (single isomer, unassigned) [Compound 49] ... 71
COc1c(Oc2cc(F)cc(C#N)c2)ccc2c1C(O)C(F)(F)S2(=O)=O (stereo not shown) [Compound 197] ... 940
O=S1(=O)CCc2c1ccc(Oc1cc(F)cc(Cl)c1)c2Br [Compound 114] ... 4400
CS(=O)(=NC#N)c1ccc(Oc2cc(F)cc(C#N)c2)c2c1[C@H](O)C(F)(F)[C@H]2F (single isomer, unassigned) [Compound 82] ... 2400
CS(=O)(=NC#N)c1ccc(Oc2cc(F)cc(C#N)c2)c2c1[C@H](O)C(F)(F)C2 (single isomer, unassigned) [Compound 20] ... 27

Ask | Entry N#Cc1c(Oc2cc(F)cc(F)c2)ccc2c1C(O)C(F)S2(=O)=O (stereo not shown) [Compound 154] , system HIF-2α HIS TAG-PASB Domain (Homo sapiens, UniProt Q99814): what IC50 was measured?
Reply | 1640

Ask | Which IC50 is reported with HIF-2α HIS TAG-PASB Domain (Homo sapiens, UniProt Q99814) for this entry: CS(=O)(=O)c1ccc(Oc2cncc(Br)c2)c2c1C(=O)C(F)(F)C2 [Compound 87] ?
Reply | 5300

Ask | Lab request: please report IC50 under test system HIF-2α HIS TAG-PASB Domain (Homo sapiens, UniProt Q99814) for O=C1CS(=O)(=O)c2ccc(Oc3cc(F)cc(F)c3)cc21 [Compound 181]
Reply | 17600

Ask | GET /values?readout=IC50&system=HIF-2α HIS TAG-PASB Domain (Homo sapiens, UniProt Q99814)&item= O=S1(=O)c2ccc(Oc3cncc(F)c3)c(Br)c2[C@@H](O)C1(F)F [Compound 187]
Reply | 305

Ask | Tell me reported IC50 for N#Cc1cc(F)cc(Oc2ccc3c(c2C(F)F)[C@H](N)C(F)(F)S3(=O)=O)c1 [Compound 148] , tested with HIF-2α HIS TAG-PASB Domain (Homo sapiens, UniProt Q99814).
Reply | 13400

Ask | Give HIF-2α HIS TAG-PASB Domain (Homo sapiens, UniProt Q99814) IC50 for CC1(O)c2c(ccc(Oc3cc(F)cc(F)c3)c2C#N)S(=O)(=O)C1(F)F (stereo not shown) [Compound 210]
Reply | 41

Ask | Lookup: IC50 / HIF-2α HIS TAG-PASB Domain (Homo sapiens, UniProt Q99814) / CS(=O)(=O)c1ccc(Oc2cncc(C#N)c2)c2c1[C@H](O)[C@H](F)C2 [Compound 77]
Reply | 1800
